- system.name: UniProtKB P00749
- assay.remarks: Abbott uPA__Urokinase Human - Ki(uM)
- condition: pH 7.4; 25 °C
reported.metric: Ki (µM)

Check out these entries, answers already filled in.
compound	system.name	reported.metric	unit.of.measurement	readout.number
COC(=O)Nc1cc(C(=O)Nc2ccc(CN)cc2)cc2ccc(C(=N)N)cc12 [uPa_17]	UniProtKB P00749	Ki	µM	0.0009
N=C(N)c1ccc2cc(NS(=O)(=O)c3ccccc3)ccc2c1 [uPa_14]	UniProtKB P00749	Ki	µM	8.7

(P) CC(C)Oc1ccc2cc(C(=N)N)ccc2c1 [uPa_5]
(Q) N=C(N)NC(=O)c1nc(Cl)c(NCc2cc(Cl)cc(Cl)c2)nc1N [uPa_22]
(R) CS(=O)(=O)Nc1cc(CCc2ccccc2)cc2ccc(C(=N)N)cc12 [uPa_37]
(S) N=C(N)c1ccc2cc(C(=O)Nc3ccc4c(c3)C(c3ccccc3)=NCC4)ccc2c1 [uPa_29]
(T) CN1CCc2ccc(C3CC3c3ccc4cc(C(=N)N)ccc4c3)cc2C1C1CCC1 (stereo not given) [uPa_41]
# sort list by recorded Ki, greatest to least Use the labels to give the requested order.
P, Q, R, S, T

* * *

Let's go through some recorded pKi values for Urokinase-type plasminogen activator (Homo sapiens, UniProt P00749) together.
pKi: −log10 of the molar value.
reported.metric: pKi

Check out these entries, answers already filled in.
molecule	readout.number
COc1ccc2ccc(C(=N)N)cc2c1-c1cnn(C(C)C)c1	5.35
CC(C)C1=NCCc2ccc(NC(=O)c3cc(Br)c4cc(C(=N)N)ccc4c3)cc21	7.80
N=C(N)c1ccc2cc(/C=C/CCc3cccnc3)cc(Br)c2c1	5.51

(P) COc1cc(NC(=O)c2ccc3cc(C(=N)N)ccc3c2)cc(OC(C)C)c1
(Q) CN1CCc2ccc(/C=C/c3ccc4cc(C(=N)N)ccc4c3)cc2C1C1CCCCC1 (stereo not drawn)
// pick larger pKi from pair: P vs Q Pick one and reply with its label.
P

* * *

Catalogue of Ki values
- system.name: Urokinase-type plasminogen activator (Homo sapiens, UniProt P00749)

Check out these entries, answers already filled in.
smiles.string	Ki
CC(C)CN(CC(C)C)C(=O)c1ccc2ccc(N)nc2c1	> 100 µM
Nc1cc2ccccc2cn1	> 30 µM

With those in mind, consider the next compound.
Report Ki under test system Urokinase-type plasminogen activator (Homo sapiens, UniProt P00749) for COC(=O)Nc1ccc2nc(N)ccc2c1 .
> 50 µM

* * *

Let's go through some recorded pKi values for Urokinase-type plasminogen activator (Homo sapiens) together.
pKi: −log10 of the molar value.
reported.metric: pKi

Check out these entries, answers already filled in.
molecule	pKi
COC(=O)Nc1cc(C(=O)Nc2ccccc2)cc2ccc(C(=N)N)cc12	7.74
CN1CCc2ccc(C3CC3c3ccc4cc(C(=N)N)ccc4c3)cc2C1c1cccnc1 (stereo not drawn)	5.90
N=C(N)c1ccc2cc(C#Cc3cccc(OC4CCCC4)c3)ccc2c1	6.18
COc1cc2ccc(C(=N)N)cc2c(OC)c1OC	5.10
CC(C)C1c2cc(C3CC3c3cc(/C=C/C4CC4)c4cc(C(=N)N)ccc4c3)ccc2CCN1C (stereo not drawn)	8.05
COc1cc(C2CC2c2ccc3c(c2)C(C(C)C)N(C)CC3)cc2ccc(C(=N)N)cc12 (stereo not drawn)	7.03
N=C(N)c1ccc2cc(C(=O)Nc3ccc4c(c3)C(C3CCCCC3)=NCC4)ccc2c1	7.18
CCOc1cc(OCC)c(OCC)cc1/C=C/c1cc(Br)c2cc(C(=N)N)ccc2c1	6.11

(a) CS(=O)(=O)n1cc(-c2cc(C(=O)Nc3ccccc3)cc3ccc(C(=N)N)cc23)cn1
(b) N=C(N)c1ccc2cc(C(=O)Nc3ccccc3)cc(-c3ncccn3)c2c1
In terms of reported pKi, does a or b have the smaller number? Pick one and reply with its label.
b
(b: 5.11, a: 6.11)

* * *

- system.name: Urokinase-type plasminogen activator (Homo sapiens, UniProt P00749)
pKi: −log10 of the molar value.
Catalogue of pKi values

molecule	result
COC(=O)Nc1ccc2nc(C(=N)N)ccc2c1 [uPa_27]	< 4.30
Nc1ccc2nc(N)ccc2c1 [uPa_23]	< 3.98
N=C(N)NC(=O)c1ccc(Cl)c(S(N)(=O)=O)c1 [uPa_45]	< 4.00
Nc1cnc2ccccc2n1 [uPa_1]	< 4.30
C=CCNC(=O)Nc1cccc2ccc(N)nc12 [uPa_30]	< 5.00

Report pKi under test system Urokinase-type plasminogen activator (Homo sapiens, UniProt P00749) for CN(CC#N)C(=O)c1ccc2ccc(N)nc2c1 [uPa_35] .
< 4.00

Report pKi under test system Urokinase-type plasminogen activator (Homo sapiens, UniProt P00749) for C#CCN(C)C(=O)c1ccc2ccc(N)nc2c1 [uPa_33] .
< 4.00

Report pKi under test system Urokinase-type plasminogen activator (Homo sapiens, UniProt P00749) for N#CC(CCOc1cccc2ccc(N)nc12)(c1ccccc1)c1ccccc1 [uPa_16] .
< 4.40
